Target: Tumor susceptibility gene 101 protein (Homo sapiens) (UniProt Q99816)
Sequence (Q99816 whole entry, looked up): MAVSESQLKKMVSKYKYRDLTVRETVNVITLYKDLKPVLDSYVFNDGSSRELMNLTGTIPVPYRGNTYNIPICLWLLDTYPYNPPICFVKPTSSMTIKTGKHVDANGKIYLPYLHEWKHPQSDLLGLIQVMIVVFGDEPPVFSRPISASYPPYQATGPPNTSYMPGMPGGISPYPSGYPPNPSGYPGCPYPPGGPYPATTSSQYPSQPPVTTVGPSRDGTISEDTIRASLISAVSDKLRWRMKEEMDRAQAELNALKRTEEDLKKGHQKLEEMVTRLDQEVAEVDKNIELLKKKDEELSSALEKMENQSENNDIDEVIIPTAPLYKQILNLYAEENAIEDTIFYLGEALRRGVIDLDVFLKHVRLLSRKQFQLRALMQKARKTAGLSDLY
Assay: qHTS Assay for Iinhibitors of HIV-1 Budding by Blocking the Interaction of PTAP/TSG101: Hit Validation (AID 651600); also: nearly all actives have a fitted effect of over 70% in size
Details: PTAP peptide/TSG101 UEV interaction, biochemical assay; series mostly up to 57.5 µM
Results filed as inconclusive are left out. Activity calls are given as the source filed them. Calls follow the shape of the dose curve; as a rule, active = well fitted inhibition curve with a large enough effect; inconclusive = small, poorly fitted or top-dose-only effect; inactive = no such curve, though single readings can be large or run the other way.
Outcome codes: active, inactive

molecule: CCN1CC=C2C(C#N)=C(N)C(C#N)(C#N)[C@H](c3cccc(OC)c3OC)[C@H]2C1
classAssignment: active
--
molecule: COc1cccc2c1C(=O)c1c(O)c3c(c(O)c1C2=O)C[C@@](O)(C(=O)CO)C[C@@H]3OC1CC(N)C(O)C(C)O1 (some centres undefined)
classAssignment: inactive
--
molecule: CC(=O)Nc1ccc2nc3c(=O)[nH]c(=O)[nH]c3nc2c1
classAssignment: inactive
--
molecule: CCN(CC)C(=O)c1sc2nc(-c3cccs3)cc(-c3cccs3)c2c1N
classAssignment: inactive

----------
Biological target: Cytochrome P450 1A2 (Homo sapiens) (UniProt P05177)
Sequence (P05177 whole entry, looked up): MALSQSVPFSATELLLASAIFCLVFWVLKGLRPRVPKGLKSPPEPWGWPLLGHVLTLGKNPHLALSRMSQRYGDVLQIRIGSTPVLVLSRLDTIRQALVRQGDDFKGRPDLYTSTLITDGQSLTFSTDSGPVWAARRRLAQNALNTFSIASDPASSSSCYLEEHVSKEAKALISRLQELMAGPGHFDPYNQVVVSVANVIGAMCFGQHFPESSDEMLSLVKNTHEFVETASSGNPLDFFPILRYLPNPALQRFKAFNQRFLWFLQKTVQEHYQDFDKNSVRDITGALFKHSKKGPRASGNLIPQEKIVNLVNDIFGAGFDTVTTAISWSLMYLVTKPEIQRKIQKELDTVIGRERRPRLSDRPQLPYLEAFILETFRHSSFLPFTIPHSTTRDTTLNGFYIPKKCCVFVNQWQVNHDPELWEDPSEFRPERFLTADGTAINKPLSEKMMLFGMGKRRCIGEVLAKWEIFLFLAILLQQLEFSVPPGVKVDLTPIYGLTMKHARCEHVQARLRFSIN
Test: p450-cyp1a2 (AID 410); also: potency is read from the fitted curve at half-maximal effect
Details: recombinant CYP1A2, luciferin-ME demethylation, luminescence; series mostly up to 57 µM
Experimental: The P450 gene superfamily is involved in metabolism and the clearance of xenobiotics. This assay used human CYP1A2 to measure the demethylation of luciferin 6' methyl ether (Luciferin-ME; Promega-Glo) to luciferin. The luciferin is then measured by luminescence after the addition of a luciferase detection regeant. Luciferin-ME concentration in the assay was equal to its Km for CYP1A2. NCGC Assay Protocol Summary: […]
Inconclusive results are not listed. Calls of active or inactive are those of the source. Calls come from the whole dose curve.
propertyMeasured: Potency

compound: CCCc1c(OCCCOc2ccc(OCC(=O)O)cc2)ccc(CC=O)c1O
measuredOn: Cytochrome P450 1A2 (Homo sapiens) (UniProt P05177)
reading: 31.6 µM (active)

compound: CCC/C=C(\CCC)C(NC(=O)Cc1ccccc1)c1ccc(C(=O)OC)cc1 (centres undefined)
measuredOn: Cytochrome P450 1A2 (Homo sapiens) (UniProt P05177)
reading: 15.8 µM (active)

compound: CC(C)OC(=O)c1cc2c(OC[C@@H](O)CNC(C)(C)C)cccc2[nH]1
measuredOn: Cytochrome P450 1A2 (Homo sapiens) (UniProt P05177)
reading: 31.6 µM (active)

compound: CC(=O)N[C@H](c1ccccc1)[C@@]1(C)C[C@@H]1[C@@H](C)C(=O)Nc1ccc2ccccc2c1
measuredOn: Cytochrome P450 1A2 (Homo sapiens) (UniProt P05177)
reading: 15.8 µM (active)

compound: Cc1ccc(C(=O)[C@@H]2[C@@H]3[C@@H](C(=O)[C@@H]4OC[C@H]3O4)[C@@H]3C=Cc4ccccc4N23)cc1
measuredOn: Cytochrome P450 1A2 (Homo sapiens) (UniProt P05177)
reading: 15.8 µM (active)

compound: COc1cc(O)c2c(=O)cc(-c3ccccc3)oc2c1
measuredOn: Cytochrome P450 1A2 (Homo sapiens) (UniProt P05177)
reading: 0.0251 µM (active)

compound: C/C(=C\COc1cc(=O)[nH]c2ccccc12)CC[C@@H](O)C(C)(C)O
measuredOn: Cytochrome P450 1A2 (Homo sapiens) (UniProt P05177)
reading: 20 µM (active)

compound: Cc1cc(C(=O)N[C@H](c2ccccc2)[C@@]2(C)C[C@@H]2[C@@H](C)C(=O)Nc2ccc3ccccc3c2)n(C)n1
measuredOn: Cytochrome P450 1A2 (Homo sapiens) (UniProt P05177)
reading: 20 µM (active)

compound: C=C1CC[C@@H]2O[C@]2(C)CC[C@@H]2[C@H]1CC2(C)C
measuredOn: Cytochrome P450 1A2 (Homo sapiens) (UniProt P05177)
reading: 15.8 µM (active)

compound: OC1c2ccccc2-c2nc3ccccc3cc21 (centres undefined)
measuredOn: Cytochrome P450 1A2 (Homo sapiens) (UniProt P05177)
reading: 0.126 µM (active)

compound: CC(C)c1cccc2c([Si](C)(C)C)c3c(nc12)-c1cccc(=O)n1C3
measuredOn: Cytochrome P450 1A2 (Homo sapiens) (UniProt P05177)
reading: 15.8 µM (active)

compound: COc1ccc2c(=O)cc(-c3ccccc3)oc2c1O
measuredOn: Cytochrome P450 1A2 (Homo sapiens) (UniProt P05177)
reading: 0.0158 µM (active)

compound: COC(=O)[C@@]1(Cc2ccc(F)cc2)[C@@H]2C(=CC(=O)[C@H]2CC(=O)C(=O)N2CCCC2)CN1C(=O)c1ccccc1
measuredOn: Cytochrome P450 1A2 (Homo sapiens) (UniProt P05177)
reading: inactive

compound: CCCC/C=C/C(NC(=O)c1ccc(-c2ccccc2)cc1)c1ccccc1 (centres undefined)
measuredOn: Cytochrome P450 1A2 (Homo sapiens) (UniProt P05177)
reading: 15.8 µM (active)

compound: COC(=O)[C@@]1(Cc2ccc(F)cc2)[C@H]2c3cc(C(=O)N(C)C)n(Cc4cccc5ccccc45)c3C[C@H]2CN1C(=O)c1ccccc1
measuredOn: Cytochrome P450 1A2 (Homo sapiens) (UniProt P05177)
reading: 6.31 µM (active)

compound: COC(=O)[C@@]1(Cc2ccc(OC)cc2)[C@H]2c3cc(C(=O)N(C)C)n(CCN4CNCC4=O)c3C[C@H]2CN1C(=O)c1ccccc1
measuredOn: Cytochrome P450 1A2 (Homo sapiens) (UniProt P05177)
reading: 20 µM (active)

compound: CC(C)=C1C(=O)C(c2ccccc2)=C2CN3C(=O)N(CCc4ccccc4)C(=O)[C@]3(Cc3ccccc3)[C@H]21
measuredOn: Cytochrome P450 1A2 (Homo sapiens) (UniProt P05177)
reading: inactive

compound: CCC[C@@H]1C[C@@]1(CCC)C(NC(=O)c1ccccc1)c1cccc(Cl)c1 (some centres undefined)
measuredOn: Cytochrome P450 1A2 (Homo sapiens) (UniProt P05177)
reading: inactive

compound: C[C@@H](C(=O)NCc1ccccn1)[C@@H]1C[C@@]1(C)[C@@H](NC(=O)OCc1ccccc1)c1ccccc1
measuredOn: Cytochrome P450 1A2 (Homo sapiens) (UniProt P05177)
reading: 20 µM (active)

----------
System: PAD
Test: qHTS profiling for inhibitors of Plasmodium falciparum proliferation (AID 504749); also: nearly all actives have a fitted effect of over 60% in size
Details: P. falciparum in erythrocytes, SYBR Green DNA, 72 h; series mostly up to 28.7 µM
Records with an inconclusive call do not appear. Active and inactive are the calls of the source. The call rests on the fitted dose curve; in most records, active means well fitted inhibition curve with a large enough effect; inconclusive means small, poorly fitted or top-dose-only effect; inactive means flat fitted curve, though single readings scatter.
Possible outcomes: true (1) = active, false (0) = inactive

compound: C=CCn1c(=O)n(C2OC(CO)C(O)C2O)c2nc(N)[nH]c(=O)c21 (stereo not given)
classAssignment: false (0)
//
compound: CC(CN1CC(=O)NC(=O)C1)N1CC(=O)NC(=O)C1 (stereo not given)
classAssignment: false (0)
//
compound: CCC(C(=O)C(C)C(O)C(C)CCc1ccc(C)c(O)c1C(=O)O)C1OC(CC)(C2CC[C@@](O)(CC)C(C)O2)CC1C (stereo not given in full)
classAssignment: true (1)
//
compound: COc1cc(/C=C2\CCC/C(=C\c3ccc(O)c(OC)c3)C2=O)ccc1O
classAssignment: true (1)
//
compound: CCC(C(=O)O)C1OC(C(C)C(O)C(C)C(=O)C(CC)C2OC3(C=CC(O)C4(CCC(C)(C5CCC(O)(CC)C(C)O5)O4)O3)C(C)CC2C)C(C)CC1C (stereo not given)
classAssignment: true (1)

----------
Experiment: Cell Viability - LYMP2-020 (AID 986);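 also: cells exposed to compound for 24 h at 37 °C; nearly all actives have a fitted effect of over 55% in size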; also: potency is read from the fitted curve at half-maximal effect
Settings: series mostly up to 92.2 µM
Inconclusive results are not listed. Calls of active or inactive are those of the source. Calls come from the whole dose curve; as a rule, active = well fitted cell-killing curve with a large enough effect; inconclusive = small, poorly fitted or top-dose-only effect; inactive = flat fitted curve, though single readings scatter.
propertyMeasured: Potency

compound: CN(C)c1ccc(C2(c3ccc(N(C)C)cc3)OC(=O)c3cc(N(C)C)ccc32)cc1
propertyMeasured: Potency
reading: inactive

compound: c1ccc2c(c1)-c1cccc3c1c-2cc1ccccc13
propertyMeasured: Potency
reading: inactive

compound: c1ccc2c(c1)ccc1cc3c(ccc4ccccc43)cc12
propertyMeasured: Potency
reading: inactive

compound: O=C1OC2(c3cc(Br)c(O)c(Br)c3Oc3c2cc(Br)c(O)c3Br)c2c(Cl)c(Cl)c(Cl)c(Cl)c21
propertyMeasured: Potency
reading: inactive

compound: CN1[C@H]2CC(OC(=O)[C@H](CO)c3ccccc3)C[C@H]1[C@H]1O[C@H]12 (stereo partly drawn)
propertyMeasured: Potency
reading: inactive

compound: CNc1ccc(O)cc1
propertyMeasured: Potency
reading: 3.98 µM (active)

compound: C=C(C)c1ccccc1
propertyMeasured: Potency
reading: inactive

compound: CCCCCC/C(C=O)=C\c1ccccc1
propertyMeasured: Potency
reading: inactive

compound: Cc1cccc(O)c1C
propertyMeasured: Potency
reading: inactive

compound: CCCCCCCC[N+](CCCCCCCC)(CCCCCCCC)CCCCCCCC
propertyMeasured: Potency
reading: 5.01 µM (active)

compound: Cc1cc(Nc2ccc(O)cc2)ccc1N
propertyMeasured: Potency
reading: 39.8 µM (active)

compound: C=CC(=O)OCCOCCOC(=O)C=C
propertyMeasured: Potency
reading: 15.8 µM (active)

compound: Nc1ccc2cc3ccccc3cc2c1
propertyMeasured: Potency
reading: inactive
